Data provenance: patent US6960685B2

# IC50 per record follows
# Tested on: JURKAT human T-cell line
# measurement-notes: Secondary assay: cell proliferation WST-1, Jurkat
# Assay type: cell-based
# experimental-setup: 48 h, read-out: Cell Proliferation Inhibition WST-1 IC50, Jurkat
result-type: IC50 (µM)

compound | uom | measured-number
O=C(/C=C/C#Cc1cccc(NS(=O)(=O)c2ccccc2)c1)NO [Oxamflatin, reference compound] | µM | 0.17
O=C(/C=C/c1ccccc1)Nc1cccc(OCC(=O)NO)c1 | µM | 12.7
